Tested on: T. versicolor (white rot fungi)
assay_overview: agar dilution plate method, wood rot fungi (MIC, IC50, percent retardation)
Type: cell-based
condition_parameters: Trametes versicolor; azole alone; read-out: T. versicolor MIC
Quick list: MIC per entry.
property: MIC (µg/mL)

• N#CC(CCc1ccc(Cl)cc1)(Cn1cncn1)c1ccccc1 (centres unmarked) = 25
• CC(C)(C)C(O)(CCc1ccc(Cl)cc1)Cn1cncn1 (centres unmarked) = 25
• CCCC1COC(Cn2cncn2)(c2ccc(Cl)cc2Cl)O1 (centres unmarked) = 50
• CC(C1CC1)C(O)(Cn1cncn1)c1ccc(Cl)cc1 (centres unmarked) = 2.5
• CCCCC(C#N)(Cn1cncn1)c1ccc(Cl)cc1 (centres unmarked) = 50
